Measured Target: bovine serum albumin (BSA) (Bos taurus, UniProt P02769)
Construct: bovine serum albumin (BSA), a representative of serum protein; purchased Sigma-Aldrich Co. LLC
Sequence (P02769 25-607): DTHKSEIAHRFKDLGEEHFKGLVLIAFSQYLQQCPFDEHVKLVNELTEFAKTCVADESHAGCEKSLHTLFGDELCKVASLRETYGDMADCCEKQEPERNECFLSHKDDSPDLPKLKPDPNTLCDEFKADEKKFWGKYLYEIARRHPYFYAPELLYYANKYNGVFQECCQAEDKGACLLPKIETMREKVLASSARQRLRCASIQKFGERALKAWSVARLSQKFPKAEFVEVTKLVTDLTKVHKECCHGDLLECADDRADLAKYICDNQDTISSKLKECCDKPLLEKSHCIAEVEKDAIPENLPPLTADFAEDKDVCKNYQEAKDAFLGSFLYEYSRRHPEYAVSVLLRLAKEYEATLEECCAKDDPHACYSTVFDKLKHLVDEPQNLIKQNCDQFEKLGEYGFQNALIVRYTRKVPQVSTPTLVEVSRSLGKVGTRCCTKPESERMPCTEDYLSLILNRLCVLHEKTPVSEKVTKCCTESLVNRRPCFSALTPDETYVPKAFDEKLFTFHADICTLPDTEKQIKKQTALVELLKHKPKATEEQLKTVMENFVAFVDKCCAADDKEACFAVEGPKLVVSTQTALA
Test: Site probe competitive (site marker displacement) analysis
Assay type: binding
Study Conditions: Binding constant KA, with digitoxin (site III marker) 4 µM; BSA 4 µM; 310 K
Measurement Kind: Kd (µM)
Answers are plain numbers, in µM.

Q) // query Kd value for entry Nc1ccc(O)c2ncccc12 [5A8HQ, 5-Amino-8-hydroxyquinoline]
A) 47.6

---

Measured Target: bovine serum albumin (BSA) (Bos taurus, UniProt P02769)
Construct: bovine serum albumin (BSA), a representative of serum protein; purchased Sigma-Aldrich Co. LLC
Test: Fluorescence quenching of BSA (Stern–Volmer, Hill and Van't Hoff analyses)
Format: binding
Study Conditions: Binding constant KA, 300 K; Hill's equation
Measurement Kind: Kd (µM)
One number for each entry, in µM.

Q) Find the recorded Kd belonging to Nc1ccc(O)c2ncccc12 [5A8HQ, 5-Amino-8-hydroxyquinoline] and report it.
A) 58.6

---

Measured Target: bovine serum albumin (BSA) (Bos taurus)
Construct: bovine serum albumin (BSA), a representative of serum protein; purchased Sigma-Aldrich Co. LLC
Test: Fluorescence quenching of BSA (Stern–Volmer, Hill and Van't Hoff analyses)
Format: binding
Study Conditions: Binding constant of BSA‒5A8HQ interaction (order of magnitude), 290–310 K
Measurement Kind: pKd
One number for each entry, as −log10 of the molar value.

Q) For the compound shown here, Nc1ccc(O)c2ncccc12 [5A8HQ, 5-Amino-8-hydroxyquinoline] , give the reported pKd.
A) 4.00

---

Measured Target: bovine serum albumin (BSA) (Bos taurus, UniProt P02769)
Construct: bovine serum albumin (BSA), a representative of serum protein; purchased Sigma-Aldrich Co. LLC
Test: Site probe competitive (site marker displacement) analysis
Type: binding
Study Conditions: Binding constant KA, with ibuprofen (site II marker) 4 µM; BSA 4 µM; 310 K
Measurement Kind: pKd
One number for each entry, as −log10 of the molar value.

Q) Look up pKd: Nc1ccc(O)c2ncccc12 [5A8HQ, 5-Amino-8-hydroxyquinoline]
A) 4.32

---

Measured Target: bovine serum albumin (BSA) (Bos taurus)
Construct: bovine serum albumin (BSA), a representative of serum protein; purchased Sigma-Aldrich Co. LLC
Test: Fluorescence quenching of BSA (Stern–Volmer, Hill and Van't Hoff analyses)
Format: binding
Study Conditions: Binding constant KA, 290 K; Hill's equation
Measurement Kind: pKd
Give bare numbers, as −log10 of the molar value.

Q) Identify the measured pKd of Nc1ccc(O)c2ncccc12 [5A8HQ, 5-Amino-8-hydroxyquinoline] for bovine serum albumin (BSA) (Bos taurus).
A) 4.40

---

Measured Target: bovine serum albumin (BSA) (Bos taurus, UniProt P02769)
Construct: bovine serum albumin (BSA), a representative of serum protein; purchased Sigma-Aldrich Co. LLC
Test: Fluorescence quenching of BSA (Stern–Volmer, Hill and Van't Hoff analyses)
Assay type: binding
Study Conditions: Binding constant KA, 310 K; Hill's equation
Measurement Kind: Kd (µM)
Numbers only, in µM.

Q) Value lookup for Kd; key = Nc1ccc(O)c2ncccc12 [5A8HQ, 5-Amino-8-hydroxyquinoline]
A) 83.7
